Origin of measurements: patent US20230321103A1

# assayedSystem: EGFR (G719S) (Homo sapiens, UniProt P00533, G719S)
# Sequence (P00533 25-1210 G719S): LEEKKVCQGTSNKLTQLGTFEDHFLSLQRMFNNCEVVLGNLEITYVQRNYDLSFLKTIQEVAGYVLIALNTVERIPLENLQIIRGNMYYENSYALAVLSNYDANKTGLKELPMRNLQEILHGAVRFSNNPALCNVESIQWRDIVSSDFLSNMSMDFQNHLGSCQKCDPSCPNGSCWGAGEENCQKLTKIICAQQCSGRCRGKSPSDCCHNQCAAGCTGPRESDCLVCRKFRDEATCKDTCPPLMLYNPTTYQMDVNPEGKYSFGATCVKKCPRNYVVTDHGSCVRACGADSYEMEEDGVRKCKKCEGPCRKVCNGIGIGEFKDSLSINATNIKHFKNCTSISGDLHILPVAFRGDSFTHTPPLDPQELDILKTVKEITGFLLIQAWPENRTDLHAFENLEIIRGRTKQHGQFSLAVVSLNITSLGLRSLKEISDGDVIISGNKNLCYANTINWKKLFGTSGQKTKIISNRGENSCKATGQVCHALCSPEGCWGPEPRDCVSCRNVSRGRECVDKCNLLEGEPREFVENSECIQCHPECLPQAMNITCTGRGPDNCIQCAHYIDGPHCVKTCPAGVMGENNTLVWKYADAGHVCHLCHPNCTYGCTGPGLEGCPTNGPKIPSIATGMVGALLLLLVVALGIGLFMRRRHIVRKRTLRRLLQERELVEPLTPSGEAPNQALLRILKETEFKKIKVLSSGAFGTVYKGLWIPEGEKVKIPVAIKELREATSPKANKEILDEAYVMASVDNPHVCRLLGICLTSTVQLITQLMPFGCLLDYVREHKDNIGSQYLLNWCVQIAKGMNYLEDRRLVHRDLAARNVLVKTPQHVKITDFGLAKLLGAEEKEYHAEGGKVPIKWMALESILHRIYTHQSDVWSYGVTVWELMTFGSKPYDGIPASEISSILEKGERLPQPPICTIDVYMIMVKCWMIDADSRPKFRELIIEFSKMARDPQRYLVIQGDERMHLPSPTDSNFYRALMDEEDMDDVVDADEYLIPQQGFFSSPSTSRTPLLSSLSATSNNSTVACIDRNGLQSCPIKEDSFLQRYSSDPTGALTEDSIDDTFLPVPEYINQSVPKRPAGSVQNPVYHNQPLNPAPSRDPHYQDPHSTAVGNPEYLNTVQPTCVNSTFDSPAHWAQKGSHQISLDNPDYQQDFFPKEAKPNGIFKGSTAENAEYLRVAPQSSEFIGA
# protocolDescription: Kinase spectrum evaluation, radiometric 33P-ATP kinase assay
# particulars: room temperature 2 h, 10 concentration gradients
pIC50: −log10 of the molar value.
endpointLabel: pIC50

Worked cases, answers included:
C=CC(=O)Nc1cccc(-n2c(=O)c(-c3ccccc3)nc3cnc(Nc4ccc(N5CCN(C)CC5)cc4OC)nc32)c1 ... 9.44
C=CC(=O)Nc1cccc(-n2c(=O)c(-c3ccccc3)nc3cnc(Nc4ccc(N(C)CCN(C)C)cc4OC)nc32)c1 ... 8.84
C=CC(=O)Nc1cccc(-n2c(=O)c(-c3ccc(F)cc3)nc3cnc(Nc4ccc(N5CCN(C)CC5)cc4OC)nc32)c1 ... 8.52
C=CC(=O)Nc1cccc(-n2c(=O)c(-c3ccccc3)nc3cnc(Nc4ccc(N5CCN(C)CC5)c(OC)c4)nc32)c1 ... 9.01

[I] C=CC(=O)Nc1cccc(-n2c(=O)c(-c3ccc(OC)cc3)nc3cnc(Nc4ccc(N5CCN(C)CC5)cc4OC)nc32)c1
[II] C=CC(=O)Nc1cccc(-n2c(=O)c(C3CCCCC3)nc3cnc(Nc4ccc(N5CCN(C)CC5)cc4OC)nc32)c1
Given the listed records, identify the one among I and II with higher pIC50. API: response body contains the label of the selected item.
I
(I: 8.78, II: 8.56)

###

# assayedSystem: EGFR (G719C) (Homo sapiens, UniProt P00533, G719C)
# protocolDescription: Kinase spectrum evaluation, radiometric 33P-ATP kinase assay
# particulars: room temperature 2 h, 10 concentration gradients
endpointLabel: IC50 (nM)

C=CC(=O)Nc1cccc(-n2c(=O)c(-c3ccccc3)nc3cnc(Nc4ccc(N5CCN(C)CC5)c(OC)c4)nc32)c1 [compound B] ... 1.04
C=CC(=O)Nc1cccc(-n2c(=O)c(-c3ccccc3)nc3cnc(Nc4ccc(N(C)CCN(C)C)cc4OC)nc32)c1 [compound A] ... 1.09
C=CC(=O)Nc1cccc(-n2c(=O)c(-c3ccc(OC)cc3)nc3cnc(Nc4ccc(N5CCN(C)CC5)cc4OC)nc32)c1 [compound E] ... 1.64
C=CC(=O)Nc1cccc(-n2c(=O)c(-c3ccc(F)cc3)nc3cnc(Nc4ccc(N5CCN(C)CC5)cc4OC)nc32)c1 [compound D] ... 2.41

[1] C=CC(=O)Nc1cccc(-n2c(=O)c(C3CCCCC3)nc3cnc(Nc4ccc(N5CCN(C)CC5)cc4OC)nc32)c1 [compound C]
[2] C=CC(=O)Nc1cccc(-n2c(=O)c(-c3ccccc3)nc3cnc(Nc4ccc(N5CCN(C)CC5)cc4OC)nc32)c1 [Compound 1]
Higher IC50: 1 or 2 ? Returns: label corresponding to the selected item.
1
(1: 1.79 nM, 2: 0.51 nM)

###

# assayedSystem: EGFR (D770GY) (Homo sapiens, UniProt P00533, D770Y/INS769G)
# Sequence (P00533 with tags, fused parts or gaps INS769G/D770Y limits assumed): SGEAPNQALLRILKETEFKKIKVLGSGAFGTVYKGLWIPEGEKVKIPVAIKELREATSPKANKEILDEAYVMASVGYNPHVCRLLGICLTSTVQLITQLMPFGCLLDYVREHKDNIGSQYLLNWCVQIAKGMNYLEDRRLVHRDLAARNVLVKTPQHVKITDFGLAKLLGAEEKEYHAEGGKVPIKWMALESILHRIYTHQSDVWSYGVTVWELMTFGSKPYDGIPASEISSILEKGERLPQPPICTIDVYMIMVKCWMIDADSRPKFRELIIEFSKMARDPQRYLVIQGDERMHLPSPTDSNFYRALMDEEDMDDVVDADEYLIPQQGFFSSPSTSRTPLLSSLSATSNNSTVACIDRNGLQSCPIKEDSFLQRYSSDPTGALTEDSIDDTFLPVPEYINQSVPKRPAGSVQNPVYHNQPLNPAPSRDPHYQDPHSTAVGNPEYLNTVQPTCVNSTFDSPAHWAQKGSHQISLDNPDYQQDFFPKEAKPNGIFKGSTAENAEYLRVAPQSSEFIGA
# protocolDescription: Kinase spectrum evaluation, radiometric 33P-ATP kinase assay
# particulars: room temperature 2 h, 10 concentration gradients
endpointLabel: IC50 (nM)

A selection of reference data follows.
C=CC(=O)Nc1cccc(-n2c(=O)c(-c3ccc(OC)cc3)nc3cnc(Nc4ccc(N5CCN(C)CC5)cc4OC)nc32)c1 [compound E] ... 1.01
C=CC(=O)Nc1cccc(-n2c(=O)c(C3CCCCC3)nc3cnc(Nc4ccc(N5CCN(C)CC5)cc4OC)nc32)c1 [compound C] ... 0.97
C=CC(=O)Nc1cccc(-n2c(=O)c(-c3ccccc3)nc3cnc(Nc4ccc(N5CCN(C)CC5)c(OC)c4)nc32)c1 [compound B] ... 0.76

[I] C=CC(=O)Nc1cccc(-n2c(=O)c(-c3ccccc3)nc3cnc(Nc4ccc(N(C)CCN(C)C)cc4OC)nc32)c1 [compound A]
[II] C=CC(=O)Nc1cccc(-n2c(=O)c(-c3ccc(F)cc3)nc3cnc(Nc4ccc(N5CCN(C)CC5)cc4OC)nc32)c1 [compound D]
Endpoint returns whichever of I and II has the numerically higher IC50. Give the chosen item's label as your response.
II

###

# assayedSystem: ERBB2 (V777_G778insCG) (Homo sapiens, UniProt P04626, INS777CG)
# Sequence (P04626 with tags, fused parts or gaps INS777CG limits assumed): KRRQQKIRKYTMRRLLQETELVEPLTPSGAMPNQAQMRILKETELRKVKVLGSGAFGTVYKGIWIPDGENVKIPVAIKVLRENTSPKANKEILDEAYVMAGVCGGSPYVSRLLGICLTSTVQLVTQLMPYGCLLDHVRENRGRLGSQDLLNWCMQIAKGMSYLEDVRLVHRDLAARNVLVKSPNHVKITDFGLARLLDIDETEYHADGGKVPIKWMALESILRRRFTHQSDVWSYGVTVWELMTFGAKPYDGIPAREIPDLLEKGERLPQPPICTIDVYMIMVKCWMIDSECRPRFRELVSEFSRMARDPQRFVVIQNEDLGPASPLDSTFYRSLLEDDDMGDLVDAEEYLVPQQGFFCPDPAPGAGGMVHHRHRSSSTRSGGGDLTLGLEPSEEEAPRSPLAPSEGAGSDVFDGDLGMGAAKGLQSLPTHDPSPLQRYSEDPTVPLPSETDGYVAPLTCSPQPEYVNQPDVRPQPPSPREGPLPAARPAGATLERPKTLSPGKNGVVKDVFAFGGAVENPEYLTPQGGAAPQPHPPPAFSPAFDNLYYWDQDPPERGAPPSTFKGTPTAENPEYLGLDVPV
# protocolDescription: Kinase spectrum evaluation, radiometric 33P-ATP kinase assay
# particulars: room temperature 2 h, 10 concentration gradients
endpointLabel: IC50 (nM)

C=CC(=O)Nc1cccc(-n2c(=O)c(C3CCCCC3)nc3cnc(Nc4ccc(N5CCN(C)CC5)cc4OC)nc32)c1 [compound C] ... 2.76
C=CC(=O)Nc1cccc(-n2c(=O)c(-c3ccccc3)nc3cnc(Nc4ccc(N5CCN(C)CC5)c(OC)c4)nc32)c1 [compound B] ... 1.56

[1] C=CC(=O)Nc1cccc(-n2c(=O)c(-c3ccccc3)nc3cnc(Nc4ccc(N(C)CCN(C)C)cc4OC)nc32)c1 [compound A]
[2] C=CC(=O)Nc1cccc(-n2c(=O)c(-c3ccccc3)nc3cnc(Nc4ccc(N5CCN(C)CC5)cc4OC)nc32)c1 [Compound 1]
# return whichever of 1 and 2 has the smaller IC50 Your choice should be expressed through its label.
2
(2: 0.22 nM, 1: 0.35 nM)

[P] C=CC(=O)N1CCC(Oc2cc3c(Nc4ccc(Cl)c(Cl)c4F)ncnc3cc2OC)CC1 [Poziotinib]
[Q] C=CC(=O)Nc1cccc(-n2c(=O)c(-c3ccc(F)cc3)nc3cnc(Nc4ccc(N5CCN(C)CC5)cc4OC)nc32)c1 [compound D]
[R] C=CC(=O)Nc1cccc(-n2c(=O)c(-c3ccc(OC)cc3)nc3cnc(Nc4ccc(N5CCN(C)CC5)cc4OC)nc32)c1 [compound E]
Order the records by IC50, with each subsequent value no larger than the one before. Present the labels in the sequence the task asks for.
R, Q, P

###

# assayedSystem: EGFR (D770_N771insNPG) (Homo sapiens, UniProt P00533, INS770NPG)
# Sequence (P00533 with tags, fused parts or gaps INS770NPG limits assumed): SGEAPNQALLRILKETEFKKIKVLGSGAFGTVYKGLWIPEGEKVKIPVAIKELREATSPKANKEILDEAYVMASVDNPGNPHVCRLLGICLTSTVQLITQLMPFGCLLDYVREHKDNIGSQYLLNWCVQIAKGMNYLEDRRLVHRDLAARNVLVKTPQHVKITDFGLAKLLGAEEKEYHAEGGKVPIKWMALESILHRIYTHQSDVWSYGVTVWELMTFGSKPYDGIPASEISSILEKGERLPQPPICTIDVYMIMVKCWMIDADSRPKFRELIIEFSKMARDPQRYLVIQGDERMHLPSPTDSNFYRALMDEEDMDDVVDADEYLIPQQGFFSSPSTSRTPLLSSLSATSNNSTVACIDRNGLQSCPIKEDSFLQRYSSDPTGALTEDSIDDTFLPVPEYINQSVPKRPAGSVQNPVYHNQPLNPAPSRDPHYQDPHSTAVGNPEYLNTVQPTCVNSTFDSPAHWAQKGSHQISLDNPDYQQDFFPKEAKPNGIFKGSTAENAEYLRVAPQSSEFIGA
# protocolDescription: Kinase spectrum evaluation, radiometric 33P-ATP kinase assay
# particulars: room temperature 2 h, 10 concentration gradients
endpointLabel: IC50 (nM)

See these solved cases before continuing.
C=CC(=O)Nc1cccc(-n2c(=O)c(C3CCCCC3)nc3cnc(Nc4ccc(N5CCN(C)CC5)cc4OC)nc32)c1 ... 3.67
C=CC(=O)Nc1cccc(-n2c(=O)c(-c3ccccc3)nc3cnc(Nc4ccc(N5CCN(C)CC5)c(OC)c4)nc32)c1 ... 1.23

[1] C=CC(=O)Nc1cccc(-n2c(=O)c(-c3ccc(OC)cc3)nc3cnc(Nc4ccc(N5CCN(C)CC5)cc4OC)nc32)c1
[2] C=CC(=O)Nc1cccc(-n2c(=O)c(-c3ccccc3)nc3cnc(Nc4ccc(N5CCN(C)CC5)cc4OC)nc32)c1
[3] C=CC(=O)Nc1cccc(-n2c(=O)c(-c3ccccc3)nc3cnc(Nc4ccc(N(C)CCN(C)C)cc4OC)nc32)c1
[4] C=CC(=O)Nc1cccc(-n2c(=O)c(-c3ccc(F)cc3)nc3cnc(Nc4ccc(N5CCN(C)CC5)cc4OC)nc32)c1
Arrange by IC50, high to low. // rank by listing labels in the order requested
4, 1, 3, 2

###

# assayedSystem: ERBB2 (V777L) (Homo sapiens, UniProt P04626, V777L)
# protocolDescription: Kinase spectrum evaluation, radiometric 33P-ATP kinase assay
# particulars: room temperature 2 h, 10 concentration gradients
pIC50: −log10 of the molar value.
endpointLabel: pIC50

# annotated cases, reported pIC50 shown
C=CC(=O)Nc1cccc(-n2c(=O)c(-c3ccc(OC)cc3)nc3cnc(Nc4ccc(N5CCN(C)CC5)cc4OC)nc32)c1 [compound E] ... 9.09
C=CC(=O)Nc1cccc(-n2c(=O)c(-c3ccc(F)cc3)nc3cnc(Nc4ccc(N5CCN(C)CC5)cc4OC)nc32)c1 [compound D] ... 8.73

[a] C=CC(=O)Nc1cccc(-n2c(=O)c(-c3ccccc3)nc3cnc(Nc4ccc(N(C)CCN(C)C)cc4OC)nc32)c1 [compound A]
[b] C=CC(=O)Nc1cccc(-n2c(=O)c(C3CCCCC3)nc3cnc(Nc4ccc(N5CCN(C)CC5)cc4OC)nc32)c1 [compound C]
Given a and b , report the one with the higher recorded pIC50. // return label of chosen record
a
(a: 9.11, b: 8.79)

###

# assayedSystem: ERBB2 (D769Y) (Homo sapiens, UniProt P04626, D769Y)
# Sequence (P04626 23-1255 D769Y): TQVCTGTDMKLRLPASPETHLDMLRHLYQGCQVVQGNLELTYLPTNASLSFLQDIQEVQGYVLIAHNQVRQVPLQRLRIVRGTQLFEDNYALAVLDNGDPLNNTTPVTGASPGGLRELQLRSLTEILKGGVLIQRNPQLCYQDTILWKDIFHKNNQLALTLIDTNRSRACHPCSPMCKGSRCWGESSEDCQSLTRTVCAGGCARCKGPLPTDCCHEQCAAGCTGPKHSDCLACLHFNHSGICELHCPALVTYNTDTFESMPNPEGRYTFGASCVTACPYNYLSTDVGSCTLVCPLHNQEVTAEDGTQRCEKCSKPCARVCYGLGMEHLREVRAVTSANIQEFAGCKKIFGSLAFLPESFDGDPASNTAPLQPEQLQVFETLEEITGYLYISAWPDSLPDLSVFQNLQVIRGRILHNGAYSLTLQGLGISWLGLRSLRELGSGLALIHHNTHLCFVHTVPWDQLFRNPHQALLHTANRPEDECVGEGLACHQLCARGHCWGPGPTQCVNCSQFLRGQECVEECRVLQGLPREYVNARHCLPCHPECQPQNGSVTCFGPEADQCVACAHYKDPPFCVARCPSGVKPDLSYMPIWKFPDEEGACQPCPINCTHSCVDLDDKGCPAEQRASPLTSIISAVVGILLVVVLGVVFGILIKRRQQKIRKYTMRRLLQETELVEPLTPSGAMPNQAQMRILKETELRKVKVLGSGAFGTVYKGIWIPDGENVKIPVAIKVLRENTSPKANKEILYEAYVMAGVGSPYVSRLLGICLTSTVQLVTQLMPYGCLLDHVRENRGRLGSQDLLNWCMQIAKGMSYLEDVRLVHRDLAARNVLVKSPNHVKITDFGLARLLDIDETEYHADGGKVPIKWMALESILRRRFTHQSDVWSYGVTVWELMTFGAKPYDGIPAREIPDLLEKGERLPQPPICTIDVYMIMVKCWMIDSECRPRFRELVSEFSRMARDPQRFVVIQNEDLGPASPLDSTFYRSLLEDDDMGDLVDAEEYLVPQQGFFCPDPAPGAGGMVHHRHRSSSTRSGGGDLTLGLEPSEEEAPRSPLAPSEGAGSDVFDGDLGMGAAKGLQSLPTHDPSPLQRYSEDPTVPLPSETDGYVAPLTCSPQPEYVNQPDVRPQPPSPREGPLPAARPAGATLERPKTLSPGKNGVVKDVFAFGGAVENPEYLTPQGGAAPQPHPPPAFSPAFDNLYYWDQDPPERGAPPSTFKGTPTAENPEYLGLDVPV
# protocolDescription: Kinase spectrum evaluation, radiometric 33P-ATP kinase assay
# particulars: room temperature 2 h, 10 concentration gradients
pIC50: −log10 of the molar value.
endpointLabel: pIC50

Worked examples follow.
C=CC(=O)Nc1cccc(-n2c(=O)c(-c3ccccc3)nc3cnc(Nc4ccc(N5CCN(C)CC5)cc4OC)nc32)c1 [Compound 1] ... 9.46
C=CC(=O)Nc1cccc(-n2c(=O)c(-c3ccccc3)nc3cnc(Nc4ccc(N5CCN(C)CC5)c(OC)c4)nc32)c1 [compound B] ... 9.11
C=CC(=O)N1CCC(Oc2cc3c(Nc4ccc(Cl)c(Cl)c4F)ncnc3cc2OC)CC1 [Poziotinib] ... 9.68
C=CC(=O)Nc1cccc(-n2c(=O)c(-c3ccc(OC)cc3)nc3cnc(Nc4ccc(N5CCN(C)CC5)cc4OC)nc32)c1 [compound E] ... 8.59
C=CC(=O)Nc1cccc(-n2c(=O)c(-c3ccccc3)nc3cnc(Nc4ccc(N(C)CCN(C)C)cc4OC)nc32)c1 [compound A] ... 9.10

[1] C=CC(=O)Nc1cccc(-n2c(=O)c(C3CCCCC3)nc3cnc(Nc4ccc(N5CCN(C)CC5)cc4OC)nc32)c1 [compound C]
[2] C=CC(=O)Nc1cccc(-n2c(=O)c(-c3ccc(F)cc3)nc3cnc(Nc4ccc(N5CCN(C)CC5)cc4OC)nc32)c1 [compound D]
Parameter metric = pIC50. Return the lower-valued option from 1 and 2 . Please indicate the selected item by its label.
1
